# Test system: Muscle tissue
# TEST METHOD NOTES: Biodistribution in Sprague-Dawley rat muscle at 20 to 120 uCi, iv after 30 mins by gamma counting analysis
# Assay type: ADME, organism-based
# COND: in vivo, 0.5 h
READOUT TYPE: Drug uptake

Task: Tell me the measured Drug uptake of N=C(N)NCCc1ccc([18F])c(O)c1 , please.
Output: 0.025 %ID·kg/g

----------
# System: Bone
# TEST METHOD NOTES: Biodistribution in Sprague-Dawley rat bone at 20 to 120 uCi, iv after 5 mins by gamma counting analysis
# Type: ADME, organism-based, Bone element
# COND: in vivo
READOUT TYPE: Drug uptake

Task: Tell me the measured Drug uptake of N=C(N)NCCc1ccc([18F])c(O)c1 , please.
Output: 0.06 %ID·kg/g

----------
# Tested on: Bone
# TEST METHOD NOTES: Biodistribution in Sprague-Dawley rat bone at 20 to 120 uCi, iv after 30 mins by gamma counting analysis
# Type: ADME, organism-based, Bone element
# COND: in vivo, 0.5 h
READOUT TYPE: Drug uptake (%ID·kg/g)
Quick note: give the figure in %ID·kg/g, leave out the unit.

Task: Request: Drug uptake, test system Bone, entry N=C(N)NCCc1ccc([18F])c(O)c1
Output: 0.039

----------
# System: Blood
# TEST METHOD NOTES: Biodistribution in Sprague-Dawley rat blood at 20 to 120 uCi, iv after 30 mins by gamma counting analysis
# Format: ADME, organism-based
# COND: in vivo, 0.5 h
READOUT TYPE: Drug uptake (%ID·kg/g)
Quick note: give the figure in %ID·kg/g, leave out the unit.

Task: Request: Drug uptake, test system Blood, entry N=C(N)NCCc1ccc([18F])c(O)c1
Output: 0.022

----------
# Tested on: Blood
# TEST METHOD NOTES: Biodistribution in Sprague-Dawley rat blood at 20 to 120 uCi, iv after 5 mins by gamma counting analysis
# Format: ADME, organism-based
# COND: in vivo
READOUT TYPE: Drug uptake (%ID·kg/g)
Quick note: give the figure in %ID·kg/g, leave out the unit.

Task: Tell me the measured Drug uptake of N=C(N)NCCc1ccc([18F])c(O)c1 , please.
Output: 0.062

Recorded values, source ChEMBL document CHEMBL2424590.
